Source: paper PMC7126369

target: IDH2/R140Q (Homo sapiens, UniProt P48735, R140Q); construct: FLAG (C); purchased BPS Bioscience; assay: Diaphorase/resazurin coupled NADPH depletion enzymatic assay, IDH2/R140Q homodimer; type: biochemical; conditions: incubation time 16 h, read-out: IC50 for α-KG reduction
Sequence (P48735 40-452 R140Q): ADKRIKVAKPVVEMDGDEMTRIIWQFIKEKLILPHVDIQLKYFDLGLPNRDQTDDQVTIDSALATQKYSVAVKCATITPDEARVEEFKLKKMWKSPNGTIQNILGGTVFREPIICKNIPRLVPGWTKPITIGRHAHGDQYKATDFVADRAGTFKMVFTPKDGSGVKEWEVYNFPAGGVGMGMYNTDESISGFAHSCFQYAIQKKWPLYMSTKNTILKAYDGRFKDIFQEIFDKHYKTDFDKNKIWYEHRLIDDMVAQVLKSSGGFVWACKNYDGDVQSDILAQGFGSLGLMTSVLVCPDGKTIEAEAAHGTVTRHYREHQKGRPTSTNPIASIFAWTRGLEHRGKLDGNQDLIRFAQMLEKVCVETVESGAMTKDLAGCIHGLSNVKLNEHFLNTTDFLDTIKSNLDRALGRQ
pIC50: −log10 of the molar value.

[
  {
    "Compound": "Cc1ccc(Cl)cc1NC(=O)Nc1cc(NC(=O)c2ccccc2)ccc1N1CCCC1 [CP-17]",
    "pIC50": 7.39
  }
]

---

molecular target: IDH1/WT (Homo sapiens, UniProt O75874); construct: FLAG (C); assay: Enzymatic assay, IDH1/WT; conditions: incubation time 16 h, read-out: IC50 for isocitrate to α-KG
Sequence (O75874 whole entry): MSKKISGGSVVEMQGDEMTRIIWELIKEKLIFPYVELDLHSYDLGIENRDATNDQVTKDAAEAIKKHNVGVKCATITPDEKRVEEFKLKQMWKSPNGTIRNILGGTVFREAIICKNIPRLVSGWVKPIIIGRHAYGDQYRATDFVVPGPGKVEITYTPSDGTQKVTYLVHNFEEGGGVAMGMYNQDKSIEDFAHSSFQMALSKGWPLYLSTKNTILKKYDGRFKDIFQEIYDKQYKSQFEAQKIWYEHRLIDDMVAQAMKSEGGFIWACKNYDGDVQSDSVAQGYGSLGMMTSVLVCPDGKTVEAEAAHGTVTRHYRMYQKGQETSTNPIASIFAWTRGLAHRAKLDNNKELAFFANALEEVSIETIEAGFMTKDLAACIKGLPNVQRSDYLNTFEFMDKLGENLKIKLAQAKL

[
  {
    "Molecule": "Cc1ccc(Cl)cc1NC(=O)Nc1cc(NC(=O)c2ccccc2)ccc1N1CCCC1 [CP-17]",
    "IC50": "> 5 µM"
  }
]
